Tested on: HL-60
Run description: In vitro induction of cell differentiation in HL-60 cells relative to 1,25(OH)2D3 (100)
Assay type: functional, Homo sapiens
Binary classification by Relative activity, with 10 as an inclusive lower bound for satisfied; all other cases are not satisfied.

# Compound, Assigned category
data = [
    ("C=C1/C(=C\\C=C2/CCC[C@]3(C)[C@@H]([C@@H](C)CCCC(C)(C)O)CC[C@@H]23)C[C@@H](O)C[C@@H]1O", "satisfied"),
    ("C=C1/C(=C\\C=C2/CCC[C@]3(C)[C@@H]([C@H](C)OCCC(C)(C)O)CC[C@@H]23)C[C@@H](O)C[C@@H]1O [MAXACALCITOL]", "satisfied"),
    ("C=C1/C(=C/C=C2/CCC[C@]3(C)C([C@H](C)CC#CC(C)(C)O)=CC[C@@H]23)C[C@@H](O)C[C@@H]1O", "satisfied"),
]

-- ask Does Relative activity meet or surpass 10 for C=C1/C(=C\C=C2/CCC[C@]3(C)[C@@H]([C@H](C)[C@@H](C)CCC(C)(C)O)CC[C@@H]23)C[C@@H](O)C[C@@H]1O ?
-- reply satisfied

-- ask Does Relative activity meet or surpass 10 for C=C1/C(=C\C=C2/CCC[C@]3(C)[C@@H]([C@H](C)[C@H](C)CCC(C)(C)O)CC[C@@H]23)C[C@@H](O)C[C@@H]1O ?
-- reply not satisfied

-- ask Does Relative activity meet or surpass 10 for C[C@H](CCCC(C)(C)O)[C@@H](C)[C@@]1(C)CCC/C(=C\C=C2C[C@@H](O)C[C@H](O)C2)C1 ?
-- reply satisfied

-- ask Does Relative activity meet or surpass 10 for C=C1/C(=C\C=C2/CCC[C@]3(C)[C@@H]([C@@H](C)[C@@H](C)CCC(C)(C)O)CC[C@@H]23)C[C@@H](O)C[C@@H]1O ?
-- reply not satisfied
